Source of measurements: patent US20160185837A1

Target: human glucagon receptor (human) (UniProt P47871)
Sequence (P47871 26-477): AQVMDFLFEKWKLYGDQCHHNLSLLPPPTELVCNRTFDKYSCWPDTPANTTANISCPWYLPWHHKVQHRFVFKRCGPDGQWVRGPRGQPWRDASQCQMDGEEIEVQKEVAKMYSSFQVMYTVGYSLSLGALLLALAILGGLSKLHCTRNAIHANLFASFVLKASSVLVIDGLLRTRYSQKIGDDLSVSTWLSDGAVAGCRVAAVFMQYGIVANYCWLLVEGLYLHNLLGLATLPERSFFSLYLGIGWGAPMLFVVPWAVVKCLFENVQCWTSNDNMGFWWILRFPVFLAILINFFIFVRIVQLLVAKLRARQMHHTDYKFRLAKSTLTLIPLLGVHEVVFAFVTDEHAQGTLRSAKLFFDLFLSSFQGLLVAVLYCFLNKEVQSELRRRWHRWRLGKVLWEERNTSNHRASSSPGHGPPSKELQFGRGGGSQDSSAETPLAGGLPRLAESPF
Experiment: cell-based or functional assay
reported_endpoint: cAMP EC50 (nM)

binder="IP207 (Fc fusion) YAEGTFISDYSIAMDKIHQQDFVNWLLAQKGKKNDWKHNITQAAAGGSGSTASSGSGSATGGGGAATHTCPPCPAPELL" bound_operator== numeric_readout=900
binder="IP364 (Fc fusion) YSEGTFTSDFSKLLERQAIDEFIAWLLKGGAAAGGSGSTASSGSGSATGGGGAATHTCPPC" bound_operator== numeric_readout=610
binder="IP422 (Fc fusion) YSEGTHTSDLRILLERQAIDEFIAFLLKGGGSGGGGSGGGGSGGGGSGGGGSGGGGSGGGGSGGGGSACPPC" bound_operator=> numeric_readout=59
binder="IP420 (Fc fusion) YSEGTFTSDYSKLLEEEATRLFIEWLLAGGGGGGSGGGGSGGGGSGGGGSATHTCPPC" bound_operator== numeric_readout=21
binder="IP368 (Fc fusion) YSEGTFTSDYRQAIDRQAIDEFIAWLLKGGGGGGGSGGGGSGGGGSGGGGSACPPC" bound_operator=> numeric_readout=4860
